# assay_notes: Plasma Stability Assay of Example A3, mouse plasma
# experimental_context: % of prodrug compound remaining, 37° C., 0.0 min
property_name: Mouse Plasma Prodrug (%)

# Mouse Plasma Prodrug (%) (compound: COc1ccc([C@@]23CCC(OC(=O)c4cccc(N(C)C)c4)=C[C@@H]2N(C)CC3)cc1OC ) is 100.0%

# Mouse Plasma Prodrug (%) (compound: COc1ccc([C@@]23CCC(OC(=O)c4ccc(C#N)cc4)=C[C@@H]2N(C)CC3)cc1OC ) is 100%

# Mouse Plasma Prodrug (%) (compound: C/C=C(\C)C(=O)OC1=C[C@@H]2N(C)CC[C@]2(c2ccc(OC)c(OC)c2)CC1 ) is 100.0%

# Mouse Plasma Prodrug (%) (compound: COc1ccc([C@@]23CCC(OC(=O)c4ccc(C(F)(F)F)cc4)=C[C@@H]2N(C)CC3)cc1OC ) is 100.0%

# Mouse Plasma Prodrug (%) (compound: COc1ccc([C@@]23CCC(=O)C[C@@H]2N(C)CC3)cc1OC [Compound 001, mesembrine, reference compound] ) is 100.0%

# Mouse Plasma Prodrug (%) (compound: COc1ccc([C@@]23CCC(OC(=O)C(c4ccccc4)c4ccccc4)=C[C@@H]2N(C)CC3)cc1OC ) is 100.0%

# Mouse Plasma Prodrug (%) (compound: COc1ccc([C@@]23CCC(OC(=O)c4c(C)cccc4C)=C[C@@H]2N(C)CC3)cc1OC ) is 100%

# Mouse Plasma Prodrug (%) (compound: COc1ccc([C@@]23CCC(OC(=O)c4cccc(C)c4C)=C[C@@H]2N(C)CC3)cc1OC ) is 100%

# Mouse Plasma Prodrug (%) (compound: COc1ccc([C@@]23CCC(OC(=O)c4cccc(C)c4)=C[C@@H]2N(C)CC3)cc1OC ) is 100%

# Mouse Plasma Prodrug (%) (compound: COc1ccc([C@@]23CCC(OC(=O)c4ccc(N(C)C)cc4)=C[C@@H]2N(C)CC3)cc1OC ) is 100.0%

# Mouse Plasma Prodrug (%) (compound: COc1ccc([C@@]23CCC(OC(=O)c4ccc(C(C)C)cc4)=C[C@@H]2N(C)CC3)cc1OC ) is 100%

# Mouse Plasma Prodrug (%) (compound: COc1ccc([C@@]23CCC(OC(=O)c4cccc(C(C)(C)C)c4)=C[C@@H]2N(C)CC3)cc1OC ) is 100%

# Mouse Plasma Prodrug (%) (compound: COc1ccc([C@@]23CCC(OC(=O)C4CC4)=C[C@@H]2N(C)CC3)cc1OC ) is 100.0%

# Mouse Plasma Prodrug (%) (compound: C=C(C)C(=O)OC1=C[C@@H]2N(C)CC[C@]2(c2ccc(OC)c(OC)c2)CC1 ) is 100.0%

# Mouse Plasma Prodrug (%) (compound: COc1ccc([C@@]23CCC(OC(=O)C(C)(C)C)=C[C@@H]2N(C)CC3)cc1OC ) is 100.0%

# Mouse Plasma Prodrug (%) (compound: COc1ccc([C@@]23CCC(OC(=O)c4ccc(F)cc4)=C[C@@H]2N(C)CC3)cc1OC ) is 100%
